Entries annotated with measured growth
Test system: SF-295 CNS
Test: NCI-60 one-dose screen, 48 h (100 = growth as untreated, 0 = no growth, -100 = all killed)
Settings: 10 µM
Experimental: Cells are grown in 96 well plates and exposed to the test compound for 48 hours. Compounds are tested at a single concentration, which is 10^-5 M for most compounds. The reported endpoint is percent growth (GI% or GIPRCNT), where numbers from 0 - 100% represent growth inhibition, and numbers from -100% - 0 represent cell death. For example, a value of 40 represents 60% growth inhibition. A value of 0 means no net growth occurred over the course of the experiment. […]
Compounds without any hit were thinned out: in the full panel of roughly 83,000, 20% have a hit.
Form entry: value (%) — number only.

Reference set (5 entries):
COMPOUND	growth, %
COc1cc(-c2cc(C(=O)N3CCN(C(=O)c4ccccc4NCc4cccs4)CC3)nc3cc(-c4ccccc4)nn23)cc(OC)c1OC	105
CCN(CC)CCSCCN(CC)CC	101
Clc1nc(Cl)c2c(ncn2C/C=C\Cn2cnc3c(Cl)nc(Cl)nc32)n1	-10.7
Cn1c([N+](=O)[O-])cnc1/C=C1\Oc2ccc(Cl)cc2C1=O	-17.3
CCCCCCCCCCCCC1C/C=C\CCCC(=O)O1 (configuration not stated)	103

Problem: Look up growth of CCCC#CCN(CC)CC and report it.
Solution: 80.2

Problem: Given the compound CCN1CCN(c2nc3ccccc3c3c(=O)c4ccccc4sc23)CC1 , write its reported growth.
Solution: 24.6

Problem: Assign growth to the following record: CC(=O)O[C@]1(C)CC[C@H]2[C@H](CNCCc3ccc(Cl)cc3)C(=O)O[C@@H]2C2=C(C)C(=O)C[C@H]21
Solution: 105

###

Reported growth by item:
Test system: HCT-116 colon
Experiment: NCI-60 one-dose screen, 48 h (100 = growth as untreated, 0 = no growth, -100 = all killed)
Conditions: 10 µM
About 83,000 compounds went through this panel and 20% of them were active in at least one assay; those are over-represented in the sample as a whole.
Your answer should be a plain number; it is taken to be in %.

Problem: Give the value of growth reported for the following: O=C(c1cccs1)c1ccccc1Cc1ccccc1
Solution: 113

Problem: Identify the reported growth for the following entry. CN(C)CCCn1c(=O)c2ccccc2c2cnc3[nH]ccc3c21
Solution: 2.85

###

Tested on: RXF 393 renal
Assay: NCI-60 one-dose screen, 48 h (100 = growth as untreated, 0 = no growth, -100 = all killed)
Conditions: 10 µM
The panel holds about 83,000 compounds, 20% with a hit somewhere; the sample as a whole holds those more often.
growth: recorded values
Field format: number, assumed %, no unit text.

Answered examples (2):
COMPOUND	growth [%]
CN(CCc1ccccn1)c1ccccc1	120
O=C(C[P+](c1ccccc1)(c1ccccc1)c1ccccc1)C[P+](c1ccccc1)(c1ccccc1)c1ccccc1	-70.2

Problem: Retrieve growth measured for O=C1/C(=C\c2ccc(F)cc2)CN(C(=O)c2ccc([N+](=O)[O-])cc2)C/C1=C\c1ccc(F)cc1 and print it.
Solution: -2.85

Problem: Give the reported growth for this compound. CC(C)(C#N)Nc1ccccc1
Solution: 101

Problem: Fill in reported growth for this entry: Cc1cc(C)c(CCc2cc(C)c(C)cc2C)cc1C
Solution: 117

Problem: State, in one line, measured growth of CSc1cc(SC)ncn1
Solution: 124
